Assay: Single-dose intravenous pharmacokinetics in dogs
Format: in vivo, dog
Conditions: male; Beagle dog, M, n=3, 1 mg/kg single IV; plasma LC/MS/MS, non-compartmental; mean (SD)
quantity-measured: C0 (ng/mL)
Answer in ng/mL, number only, no unit symbol.

Enquiry: Fill in: C0 of CC(=O)N[C@H]1CSSC[C@@H](C(N)=O)NC(=O)[C@H](CC(=O)O)NC(=O)[C@@H]2CCCN2C(=O)CNC(=O)[C@H](CCCCN)NC(=O)[C@H](CC(=O)O)NC(=O)CNC(=O)[C@H](CCCNC(=N)N)NC1=O is ___
Return: 6010

---

Experiment: Single-dose intravenous pharmacokinetics in mice
Assay type: in vivo, mouse
Settings: male; BALB/c mouse, M, n=3, 1.5 mg/kg single IV; plasma LC/MS/MS, non-compartmental; one time point per animal; read-out: V
quantity-measured: Vd (L/kg)
Answer in L/kg, number only, no unit symbol.

Enquiry: Fill in: Vd of CC(=O)N[C@H]1CSSC[C@@H](C(N)=O)NC(=O)[C@H](CC(=O)O)NC(=O)[C@@H]2CCCN2C(=O)CNC(=O)[C@H](CCCCN)NC(=O)[C@H](CC(=O)O)NC(=O)CNC(=O)[C@H](CCCNC(=N)N)NC1=O is ___
Return: 0.449
